All values here come from PubChem BioAssay (NCI).

Tested on: SK-MEL-2 melanoma
Test: NCI-60 one-dose screen, 48 h (100 = growth as untreated, 0 = no growth, -100 = all killed)
Details: 10 µM unless noted
About 83,000 compounds went through this panel and 20% of them were active in at least one assay; those are over-represented in the sample as a whole. Calls of active or inactive are those of the source. How the source made its calls: active means growth percent below 10; inactive means the rest.
Here, each record is paired with measured growth data.

Answered examples (5):
molecule	growth
Nc1nc(N)c(-c2ccc(Cl)c(Cl)c2)c(CBr)n1	87.6% (inactive)
CC(=O)n1nc(C(=O)OC(C)(C)c2ccccc2)c2ccccc21	105% (inactive)
N#Cc1ccc(O)c(C2=NCC(c3cccc(Oc4ccccc4)c3)O2)c1 (stereo not given)	7.46% (active)
CCOC(=O)c1cc(C)n(-c2ccc(C(=O)O)cc2)c1C	32% (inactive)
O=S(=O)(Nc1cc(F)cc(Cl)c1)c1ccc(-c2cnc(C3CC3)o2)cc1	52.8% (inactive)

Data request: Tell me its growth given COCCn1cc(-c2csc(-c3cn(C)c4ccc(Br)cc34)n2)c2cccnc21 as the entry.
Data returned: 65.6% (inactive)

Data request: Tell me its growth given O=[N+]([O-])c1cccc(-c2nc3cc4nc5ccccc5[nH]c4cc3n2)c1 as the entry.
Data returned: 93.4% (inactive)

Data request: Tell me its growth given O=C(Nc1ccc(OS(=O)(=O)c2ccc(F)cc2)cc1)C1CCCCCC1 as the entry.
Data returned: 98.2% (inactive)

Data request: Tell me its growth given Cc1cc(C)c2c(c1)N(C)c1ncnc(-n3cnc4cc(C)ccc43)c1CC2C (stereo not given) as the entry.
Data returned: 16.7% (inactive)

Data request: Tell me its growth given O=C(Nn1c2c(sc1=NC1CC1)C(=O)c1ccccc1C2=O)c1cc2ccc1CCc1ccc(cc1)CC2 as the entry.
Data returned: 49.5% (inactive)

Data request: Tell me its growth given CN(C)CCNC(=O)c1ccc(-c2nc3ccc4[nH]ncc4c3c3c2C2CCC3C2)cc1 (stereo not given) as the entry.
Data returned: -5.51% (active)

* * *

System: EKVX NSCLC
Experiment: NCI-60 one-dose screen, 48 h
Conditions: 10 µM unless noted
About 83,000 compounds went through this panel and 20% of them were active in at least one assay; those are over-represented in the sample as a whole. Active and inactive are the calls of the source. Rule for the calls: active = growth percent below 10; inactive = the rest.
Give one outcome, nothing more. List: active, inactive

Take a look at these entries with their results.
molecule	class assignment
CCOC(=O)C/C(=N\Nc1cc(=O)[nH]c2ccc(Br)cc12)C(=O)OCC	inactive
Nc1nc(-c2ccc(Cl)cc2)nc2c1sc(=S)n2-c1ccccc1	inactive
CC/C(=C(/c1ccc(Cl)cc1)c1ccc(OCCN2CCCCC2)cc1)c1ccc(OC)cc1	inactive
CNc1nnc2n(-c3ccccc3)c(=O)c3cnn(-c4ccccc4)c3n12	inactive

Data request: Lab log entry: COCCOc1cc2ncnc(N3CCN(c4cc(S(C)(=O)=O)c(C)cc4Cl)CC3)c2cc1OCCOC — outcome as called in the assay?
Data returned: inactive

Data request: Lab log entry: N#CC1=C(N)Oc2c(c(=O)[nH]c3ccc(Cl)cc23)C12C(=O)c1ccccc1C2=O — outcome as called in the assay?
Data returned: inactive

Data request: Lab log entry: CCSC(SCC)c1ccc(Cl)cc1 — outcome as called in the assay?
Data returned: inactive

Data request: Lab log entry: C=C(C)[C@@H]1CC[C@]2(C(=O)O)CC[C@]3(C)[C@H](CC[C@@H]4[C@@]5(C)CCC(NC(=O)c6cccc(OC(C)=O)c6OC(C)=O)C(C)(C)[C@@H]5CC[C@]43C)[C@@H]12 (stereo not given in full) — outcome as called in the assay?
Data returned: active

Data request: Lab log entry: COc1ccc(/C=N/NC(=O)c2ccc(-n3cc(-c4ccccc4)nn3)cc2)cc1OC — outcome as called in the assay?
Data returned: inactive

Data request: Lab log entry: CC(C)c1ccc(-n2c(=S)[nH]c3sc4cc(O)ccc4c3c2=O)cc1 — outcome as called in the assay?
Data returned: inactive

Data request: Lab log entry: COc1ccc(-c2nn(-c3cccc(Cl)c3)cc2-c2cc(-c3ccc(Br)cc3)nc(N)n2)cc1 — outcome as called in the assay?
Data returned: inactive

Data request: Lab log entry: CCCCCCCCCc1ccc(OCCOCCOCCOCCOCCOCCOCCOCCOCCO)cc1 — outcome as called in the assay?
Data returned: inactive

Data request: Lab log entry: Nc1nc2ccccc2c2c1S(=O)(=O)c1ccc(Cl)cc1C2=O — outcome as called in the assay?
Data returned: inactive

Data request: Lab log entry: O=C(/C=C/c1cn(-c2ccccc2)nc1-c1ccc(Cl)cc1)c1ccc(F)cc1 — outcome as called in the assay?
Data returned: inactive

Data request: Lab log entry: COc1cc(/C=C2/C=C(c3ccccc3)N(CCc3ccc(S(N)(=O)=O)cc3)C2=O)cc(OC)c1OC — outcome as called in the assay?
Data returned: inactive

* * *

Test system: HOP-92 NSCLC
Assay: NCI-60 one-dose screen, 48 h (100 = growth as untreated, 0 = no growth, -100 = all killed)
Settings: 10 µM unless noted
Description: Growth inhibition of the HOP-92 human Non-Small Cell Lung tumor cell line is measured as a screen for anti-cancer activity. Cells are grown in 96 well plates and exposed to the test compound for 48 hours. Compounds are tested at a single concentration, which is 10^-5 M for most compounds. The reported endpoint is percent growth (GI% or GIPRCNT), where numbers from 0 - 100% represent growth inhibition, and numbers from -100% - 0 represent cell death. […]
The panel holds about 83,000 compounds, 20% with a hit somewhere; the sample as a whole holds those more often.
Here, each record is paired with measured growth data.
Just the number in %, nothing appended.

compound	study target	data value
C=CCSc1nnc(NC(=O)CCl)s1	HOP-92 NSCLC	112
CCOC(=O)c1cc(C(=O)c2cc(OC)c(OC)c(OC)c2)n2ncccc12	HOP-92 NSCLC	73.6
COc1cc(C2CC(c3ccc(Nc4nc(Nc5ccc(Cl)cc5)nc(Nc5ccc(Cl)cc5)n4)cc3)=NN2C(C)=O)cc(OC)c1OC (centres undefined)	HOP-92 NSCLC	-3.51
O=C(Nc1nc2ccccc2s1)c1ccc(F)cc1	HOP-92 NSCLC	78.7
CCc1ccccc1-n1c(-c2ccc(OC)cc2)cc(-c2ccc(OC)cc2)c(C#N)c1=O	HOP-92 NSCLC	5.54

Data request: Tell me its growth given N#Cc1ccc(O)c(C2=NCC(c3ccccc3)O2)c1 (centres undefined) as the entry.
Data returned: 60.6

Data request: Tell me its growth given O=C(Nc1nc2ccc(C(=O)N3CCN(/C=C/c4ccccc4)CC3)cc2s1)c1ccc(NCCc2ccccc2)c([N+](=O)[O-])c1 as the entry.
Data returned: 51.8

Data request: Tell me its growth given COCCn1cc(-c2csc(-c3cn(C)c4ccc(Br)cc34)n2)c2cccnc21 as the entry.
Data returned: 65.3

Data request: Tell me its growth given Cc1ccccc1/C=C/C(=O)c1cccc(OCCCCOc2cccc(C(=O)/C=C/c3ccccc3C)c2)c1 as the entry.
Data returned: 93.6

* * *

System: HCT-15 colon
Assay: NCI-60 one-dose screen, 48 h
Conditions: 10 µM unless noted
The panel holds about 83,000 compounds, 20% with a hit somewhere; the sample as a whole holds those more often. Activity calls are given as the source filed them. Rule for the calls: active = growth percent below 10; inactive = the rest.
Give one outcome, nothing more. List: 1 for active, -1 for inactive

Take a look at these entries with their results.
molecule	class assignment
COc1ccc(/C=C/C(=O)c2ccc(Nc3ccnc4cc(Cl)ccc34)cc2)cc1	-1
O=C1c2ccccc2-c2c1c1c(=O)[nH]c3ccccc3c1n2Cc1ccccc1	-1
N#Cc1c(-c2ccccc2)cc(-c2ccccc2)n(CCCC(=O)Nc2ccccc2N)c1=O	-1
COc1ccccc1N1CCCCC1	-1
COc1ccc(/C=C(\C#N)n2nnc3cc(Cl)ccc32)cc1	1
C=CCn1c(C)nc2ccc(Nc3nc(Nc4ccc5nc(C)n(CC=C)c5c4)c4ccccc4n3)cc21	1

Data request: Lab log entry: COc1ccc(CN2c3ccccc3Sc3ccccc32)cc1F — outcome as called in the assay?
Data returned: -1

Data request: Lab log entry: Nc1nc(N)c(-c2ccc(Cl)c(Cl)c2)c(CBr)n1 — outcome as called in the assay?
Data returned: -1

Data request: Lab log entry: Cc1cccc(/C=C/c2c(C(=O)/C=C/c3ccccc3)c(C)nc3ccccc23)c1 — outcome as called in the assay?
Data returned: 1

Data request: Lab log entry: O=S(=O)(Nc1ccc(Cl)c(C(F)(F)F)c1)c1ccc(-c2cnc(C3CC3)o2)cc1 — outcome as called in the assay?
Data returned: -1

Data request: Lab log entry: C=CCn1c(SCC(=O)Nc2ccc(C(=O)/C=C/c3ccc(Cl)cc3)cc2)nnc1-c1ccc(Br)cc1 — outcome as called in the assay?
Data returned: -1

Data request: Lab log entry: O=C1/C(=C/c2ccccc2O)CC/C1=C\c1ccccc1O — outcome as called in the assay?
Data returned: -1

Data request: Lab log entry: CCCn1cc2c(=O)nc3sc(Cc4ccccc4)c(C)n3c2n1 — outcome as called in the assay?
Data returned: -1

Data request: Lab log entry: O=C(Nc1ccc(Oc2cccc(Cl)c2)c(Cl)c1)c1cccnc1 — outcome as called in the assay?
Data returned: -1

Data request: Lab log entry: C=C(C)[C@@H]1CC[C@]2(C(=O)O)CC[C@]3(C)[C@H](CC[C@@H]4[C@@]5(C)CCC(NC(=O)c6cccc(OC(C)=O)c6OC(C)=O)C(C)(C)[C@@H]5CC[C@]43C)[C@@H]12 (stereo not given in full) — outcome as called in the assay?
Data returned: 1
